- Test system: HCT116, Colon
- method: Growth inhibition of HCT116 cells
- Type: cell-based
- details: Homo sapiens, HCT-116
testReadout: pIC50
Answers are plain numbers, as −log10 of the molar value.

Ask: Entry CSc1ccc(/C=C2/C(C)=C(CC(=O)O)c3cc(F)ccc32)cc1 [Sulindac sulfide] : reported pIC50 = ?
Reply: 4.35

* * *

- Tested on: PDE peak B (novel cGMP-specific PDE) from SW-480 cells
- method: cGMP hydrolysis by PDE peak B
- Assay type: biochemical, human
testReadout: Sensitivity of the new cGMP-PDE to inhibition (in words)

compound	assayedSystem	value
O=C([O-])C1CCN(c2nc(NCc3ccc4c(c3)OCO4)c3cc(Cl)ccc3n2)CC1.[Na+]	PDE peak B (novel cGMP-specific PDE) from SW-480 cells	relatively insensitive
CC1(C)C(=O)Nc2ccc(C3=NNC(=O)CC3)cc21	PDE peak B (novel cGMP-specific PDE) from SW-480 cells	relatively insensitive
COc1ccc(C2CNC(=O)C2)cc1OC1CCCC1 (stereo not shown)	PDE peak B (novel cGMP-specific PDE) from SW-480 cells	relatively insensitive
CCOC(=O)C1=C[C@]2(CC)CCCN3CCc4c(n1c1ccccc41)[C@@H]32	PDE peak B (novel cGMP-specific PDE) from SW-480 cells	relatively insensitive
